# PROTOCOL: in vivo
# CONDITION_DESCRIPTION: Sprague-Dawley, rat, iv, 1 mg/kg
Recorded clearance by entry

- MOLECULE: "CC(=O)Nc1nc2c(Oc3cc(-c4ccc(C(F)(F)F)cc4NC(=O)[C@@H]4CCC(C)N4)ncn3)cccc2s1 (stereo partly drawn)"
  RESULT: "10.3 mL/min/kg"
- MOLECULE: "CC(=O)Nc1nc2c(Oc3cc(-c4ccc(C(F)(F)F)cc4NC(=O)[C@@H]4CCCN4CC(C)C)ncn3)cccc2s1"
  RESULT: "> 66.7 mL/min/kg"

Read the next record carefully.
Name the reported clearance value associated with the molecule CC(=O)Nc1nc2c(Oc3cc(-c4ccc(C(F)(F)F)cc4NC(=O)[C@H]4CCCN4CC(C)C)ncn3)cccc2s1
> 66.7 mL/min/kg
